The entries below come with measured % Inhibition (Mean) Placental Microsomes values attached.
Target: oestrone sulphatase (Homo sapiens)
Sequence (P08842 22-583): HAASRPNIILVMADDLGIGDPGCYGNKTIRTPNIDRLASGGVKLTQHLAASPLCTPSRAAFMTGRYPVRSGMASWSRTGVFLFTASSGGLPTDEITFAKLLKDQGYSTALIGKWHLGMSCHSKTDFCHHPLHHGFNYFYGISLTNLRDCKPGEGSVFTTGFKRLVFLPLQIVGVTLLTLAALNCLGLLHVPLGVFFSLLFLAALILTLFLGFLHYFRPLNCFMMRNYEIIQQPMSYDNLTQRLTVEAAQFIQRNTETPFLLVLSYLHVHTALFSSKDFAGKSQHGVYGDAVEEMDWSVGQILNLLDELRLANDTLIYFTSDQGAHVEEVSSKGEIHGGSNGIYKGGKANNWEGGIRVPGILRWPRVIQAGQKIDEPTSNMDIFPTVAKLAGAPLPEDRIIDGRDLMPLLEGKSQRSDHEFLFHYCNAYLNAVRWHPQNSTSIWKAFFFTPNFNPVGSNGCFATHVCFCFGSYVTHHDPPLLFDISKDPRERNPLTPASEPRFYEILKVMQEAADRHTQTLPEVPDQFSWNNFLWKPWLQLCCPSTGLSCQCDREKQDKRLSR
Conditions: concentration tested 100 mM (so in the source)

>  <compound>
C=CCc1cc2c(cc1OS(N)(=O)=O)CC[C@@H]1[C@@H]2CC[C@]2(C)C(=O)CC[C@@H]12 [2-allyl EMATE]

>  <% Inhibition (Mean) Placental Microsomes, %>
89.6

$$$$
>  <compound>
CCCc1cc2c(cc1OS(N)(=O)=O)CC[C@@H]1[C@@H]2CC[C@]2(C)C(=O)CC[C@@H]12 [2-n-propyl EMATE]

>  <% Inhibition (Mean) Placental Microsomes, %>
69.2

$$$$
>  <compound>
C=CCc1c(OS(N)(=O)=O)ccc2c1CC[C@@H]1[C@@H]2CC[C@]2(C)C(=O)CC[C@@H]12 [4-allyl EMATE]

>  <% Inhibition (Mean) Placental Microsomes, %>
71.9

$$$$
>  <compound>
COc1cc2c(cc1OS(N)(=O)=O)CC[C@@H]1[C@@H]2CC[C@]2(C)C(=O)CC[C@@H]12 [2-methoxy EMATE]

>  <% Inhibition (Mean) Placental Microsomes, %>
99.7

$$$$
>  <compound>
CCCc1c(OS(N)(=O)=O)ccc2c1CC[C@@H]1[C@@H]2CC[C@]2(C)C(=O)CC[C@@H]12 [4-n-propyl EMATE]

>  <% Inhibition (Mean) Placental Microsomes, %>
23.7

$$$$

----------
Biological target: Steroid sulphatase (Homo sapiens)
Sequence (P08842 22-583): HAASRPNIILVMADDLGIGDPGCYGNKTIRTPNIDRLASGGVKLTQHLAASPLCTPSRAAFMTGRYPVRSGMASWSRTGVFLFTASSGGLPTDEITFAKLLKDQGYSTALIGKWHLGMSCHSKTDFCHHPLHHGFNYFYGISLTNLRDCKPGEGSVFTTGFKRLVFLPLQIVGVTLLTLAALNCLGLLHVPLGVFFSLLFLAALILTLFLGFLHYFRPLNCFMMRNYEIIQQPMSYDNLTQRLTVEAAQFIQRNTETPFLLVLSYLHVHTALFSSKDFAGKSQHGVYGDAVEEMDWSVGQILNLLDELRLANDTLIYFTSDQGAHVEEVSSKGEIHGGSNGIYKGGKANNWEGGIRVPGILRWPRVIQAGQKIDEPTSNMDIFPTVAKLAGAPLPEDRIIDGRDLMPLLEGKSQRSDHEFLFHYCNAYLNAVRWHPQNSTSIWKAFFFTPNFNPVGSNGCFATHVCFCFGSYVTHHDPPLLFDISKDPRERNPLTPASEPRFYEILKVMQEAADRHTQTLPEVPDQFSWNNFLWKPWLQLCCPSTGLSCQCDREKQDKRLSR
Experiment: biochemical
pIC50: −log10 of the molar value.
measured.metric: pIC50

>  <molecule>
C[C@]12CC[C@@H]3c4ccc(OS(N)(=O)=O)cc4CC[C@H]3[C@@H]1CCC2=O [Oestrone-3-sulphamate]

>  <numeric.result>
7.15

$$$$

Values from patent US7098199B2
